Test system: Bacillus subtilis
MEASUREMENT DESCRIPTION: Antimicrobial activity against Bacillus subtilis NCIM 2063 at 1000 ug/disk after 24 hrs by disk diffusion method
Assay type: functional
ASSAY CONDITIONS: NCIM 2063, 24 h, read-out: DIZ
Everything with zone of inhibition at 1000 µg/disc lower than 10 mm is Not fulfilled; everything else, including exactly 10 mm, is Fulfilled.

Check out these entries, answers already filled in.
In [3]: df
Out[3]:
                                   molecule  system_under_test          class
0  CC1(C)CC(=O)C2=C(C1)Nc1c(ccc3ccccc13)C2c1cccc(Cl)c1 (centres undefined)  Bacillus subtilis  Not fulfilled
1  CC1(C)CC(=O)C2=C(C1)Nc1c(ccc3ccccc13)C2c1ccccc1Cl (centres undefined)  Bacillus subtilis  Not fulfilled
2  CC1(C)CC(=O)C2=C(C1)Nc1c(ccc3ccccc13)C2c1cccc([N+](=O)[O-])c1 (centres undefined)  Bacillus subtilis      Fulfilled

Is zone of inhibition at 1000 µg/disc at least 10 mm? Consider O=C1CCCC2=C1C(c1cccc([N+](=O)[O-])c1)c1ccc3ccccc3c1N2 (centres undefined)
Fulfilled

Is zone of inhibition at 1000 µg/disc at least 10 mm? Consider CC1(C)CC(=O)C2=C(C1)Nc1c(ccc3ccccc13)C2c1ccccc1 (centres undefined)
Fulfilled

Is zone of inhibition at 1000 µg/disc at least 10 mm? Consider CC1(C)CC(=O)C2=C(C1)Nc1c(ccc3ccccc13)C2c1ccccc1O (centres undefined)
Not fulfilled

Is zone of inhibition at 1000 µg/disc at least 10 mm? Consider O=C1CCCC2=C1C(c1ccc(Cl)cc1)c1ccc3ccccc3c1N2 (centres undefined)
Fulfilled

Is zone of inhibition at 1000 µg/disc at least 10 mm? Consider O=C1CCCC2=C1C(c1ccc(O)cc1)c1ccc3ccccc3c1N2 (centres undefined)
Fulfilled

Is zone of inhibition at 1000 µg/disc at least 10 mm? Consider O=C1CCCC2=C1C(c1cccc(Cl)c1)c1ccc3ccccc3c1N2 (centres undefined)
Fulfilled
